Biological target: human MCH receptor (Homo sapiens, UniProt Q99705)
Construct: expressed in transfected cells
Sequence (Q99705 whole entry): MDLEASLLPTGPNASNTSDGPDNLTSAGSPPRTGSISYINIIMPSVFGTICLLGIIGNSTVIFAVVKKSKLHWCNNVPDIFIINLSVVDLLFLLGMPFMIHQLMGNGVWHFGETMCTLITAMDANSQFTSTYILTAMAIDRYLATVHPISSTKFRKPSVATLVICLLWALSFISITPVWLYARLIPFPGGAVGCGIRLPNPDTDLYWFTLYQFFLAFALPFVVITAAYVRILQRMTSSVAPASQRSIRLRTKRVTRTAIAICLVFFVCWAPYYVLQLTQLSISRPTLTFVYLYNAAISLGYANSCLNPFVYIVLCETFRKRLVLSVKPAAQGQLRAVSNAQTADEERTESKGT
Assay: calcium mobilization assay (FLIPR); functional IC50 of MCH1R antagonists
Assay type: cell-based
Settings: recombinant HEK293 cell line expressing human MCH receptor; calcium flux after addition of agonist MCH
EXPERIMENTAL_READOUT: IC50 (nM)

(A) O=C(N[C@H]1CCc2cc(CN3CCC4(CCCC4)C3)ccc2C1)c1ccc(OC[C@@H]2CCCO2)cc1 [Example 3-194]
(B) O=C(N[C@H]1CCc2cc(CN3CCC(O)CC3)ccc2C1)c1ccc(OC[C@@H]2CCCO2)cc1 [Example 3-40]
Query string: Between these two entries, A and B , state which has the higher IC50. // output: label of the selected item
Result string: B
(B: 180 nM, A: 90 nM)
